All values here come from patent US20190241669A1.

Biological target: Human BCMA (human) (UniProt Q02223)
Assay: SPR, IgG immobilised, huBCMA analyte, 25 C
VALUE_KIND: kon (M⁻¹ s⁻¹)
Numbers only, in M⁻¹ s⁻¹.

Go through the items and report each one's kon.
1. L1.GDF/L3.KW/H3.AP (antibody, V domains shown) VH: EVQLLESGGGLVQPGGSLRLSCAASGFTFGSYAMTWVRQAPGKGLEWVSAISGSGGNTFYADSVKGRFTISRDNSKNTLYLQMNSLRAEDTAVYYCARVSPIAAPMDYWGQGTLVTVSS VL: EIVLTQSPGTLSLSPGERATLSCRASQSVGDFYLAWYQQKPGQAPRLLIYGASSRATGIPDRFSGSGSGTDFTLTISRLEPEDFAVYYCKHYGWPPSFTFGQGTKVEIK
2. L1.LGF/L3.KW/H3.AP (antibody, V domains shown) VH: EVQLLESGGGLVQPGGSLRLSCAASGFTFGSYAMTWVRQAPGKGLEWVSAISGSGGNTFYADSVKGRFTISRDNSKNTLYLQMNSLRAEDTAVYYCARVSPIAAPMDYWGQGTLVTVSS VL: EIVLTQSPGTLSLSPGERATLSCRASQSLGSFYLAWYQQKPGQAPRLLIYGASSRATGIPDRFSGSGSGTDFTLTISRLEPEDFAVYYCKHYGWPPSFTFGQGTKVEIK
3. L1.LGF/L3.PY/H3.AP (antibody, V domains shown) VH: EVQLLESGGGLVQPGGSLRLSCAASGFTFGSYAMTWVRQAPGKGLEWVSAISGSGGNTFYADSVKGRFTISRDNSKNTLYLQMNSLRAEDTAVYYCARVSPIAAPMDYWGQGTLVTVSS VL: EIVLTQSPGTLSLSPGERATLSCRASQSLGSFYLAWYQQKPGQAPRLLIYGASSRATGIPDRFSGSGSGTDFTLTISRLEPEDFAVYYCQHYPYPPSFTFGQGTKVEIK

Key:
1.17e+06
928000
457000
